Reference source for all entries: ChEMBL document CHEMBL1155460

Entries with reported pIC50 on Acetylcholinesterase (Homo sapiens, UniProt P22303)
Sequence (P22303 whole entry): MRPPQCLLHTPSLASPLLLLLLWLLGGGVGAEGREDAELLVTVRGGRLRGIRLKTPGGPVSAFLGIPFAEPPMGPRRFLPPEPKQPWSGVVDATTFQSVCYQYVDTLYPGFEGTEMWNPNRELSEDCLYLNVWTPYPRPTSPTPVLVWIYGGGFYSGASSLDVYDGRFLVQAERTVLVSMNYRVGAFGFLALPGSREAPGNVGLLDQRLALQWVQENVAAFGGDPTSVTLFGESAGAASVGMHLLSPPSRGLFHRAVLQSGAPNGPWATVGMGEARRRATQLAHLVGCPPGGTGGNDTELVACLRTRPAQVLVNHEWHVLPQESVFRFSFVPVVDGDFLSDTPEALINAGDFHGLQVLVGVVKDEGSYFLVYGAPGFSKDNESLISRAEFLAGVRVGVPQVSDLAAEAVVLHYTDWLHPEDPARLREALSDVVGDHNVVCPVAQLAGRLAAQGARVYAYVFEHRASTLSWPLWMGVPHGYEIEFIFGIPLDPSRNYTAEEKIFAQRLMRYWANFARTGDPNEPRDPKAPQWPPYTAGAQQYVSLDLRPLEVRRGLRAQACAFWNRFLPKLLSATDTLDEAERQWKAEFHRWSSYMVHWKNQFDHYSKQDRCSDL
Note: pIC50 values are expressed as the negative base-10 logarithm of concentration in M.

Record excerpt, results attached:
O=C(c1ccncc1)N(CCC1CCN(Cc2ccccc2)CC1)c1ccccc1    7.19
NCCCCCCCCCCNc1c2c(nc3ccccc13)CCCC2    6.83

Continue with the molecule presented below.
Given the molecule O=C1c2ccccc2CN1CCC1CCN(Cc2ccccc2)CC1 , what is its reported pIC50?
7.01

* * *

Entries with reported IC50 on Acetylcholinesterase (Homo sapiens, UniProt P22303)
Express the result in nM but write the number alone.

Record excerpt, results attached:
NCCCCCCCCCNc1c2c(nc3ccccc13)CCCC2    131
NCCCCCCCCNc1c2c(nc3ccccc13)CCCC2    89

Continue with the molecule presented below.
Notebook entry, Acetylcholinesterase (Homo sapiens, UniProt P22303) assay: IC50 of O=C(NCCCCCCCNc1c2c(nc3cc(Cl)ccc13)CCCC2)c1n[nH]c2ccccc12 = ?
95

* * *

Target: Acetylcholinesterase (Homo sapiens, UniProt P22303)
Labelling field: enter rule met if recorded IC50 is less than 100 nM. Enter rule not met if it equals or exceeds that cut-off.

Field: example entries. Status: answers known.
O=C1c2ccccc2C(=O)N1CCC1CCN(Cc2ccccc2)CC1    rule met
O=C(CCC1CCN(Cc2cccc(F)c2)CC1)c1ccc2c(c1)NCCCC2    rule not met

Lab log: compare recorded IC50 with 100 nM; is it strictly lower for c1ccc2c(NCCCCCCCCCNc3ccncc3)c3c(nc2c1)CCCC3 ?
rule met

Okay, and CN(CCCNC(=O)CCc1c[nH]c2ccccc12)CCCNc1c2c(nc3ccccc13)CCCC2 ?
rule not met

Okay, and CN(CCOCCNC(=S)NC(=O)c1ccccc1)Cc1ccccc1 ?
rule not met

Okay, and O=C1c2ccccc2CC1CC1CCN(c2ccccc2)CC1 (stereo unspecified) ?
rule not met
